Entry source: ChEMBL document CHEMBL1201862

Test system: Hs-578T
Assay: NCI tumour cell line growth inhibition, 48 h
Activity calls are given as the source filed them. Rule as the data show it: active = GI50 up to about 1.1 µM and inactive = higher.
Labels: active, inactive

INSERT INTO measurements (compound, classification) VALUES
  ('Cc1ccccc1NC(=O)CC(=O)NNC(Sc1ccccc1)c1cc(/N=N/c2ccc(Br)cc2)ccc1O (stereo unspecified)', 'inactive'),
  ('O=C(NCc1ccccc1)c1nn[nH]c1O', 'inactive'),
  ('NS(=O)(=O)c1nnc(NS(=O)(=O)c2ccccc2[N+](=O)[O-])s1', 'inactive'),
  ('Cn1c(=O)c2c(nc(NCCCCl)n2CC(=O)NCCCCl)n(C)c1=O', 'inactive'),
  ('O=[N+]([O-])c1cc(Cc2cc([N+](=O)[O-])c3cccnc3c2O)c(O)c2ncccc12', 'inactive'),
  ('CCOP(=O)(OCC)/C(C#N)=C/c1coc2cc(C)cc(C)c2c1=O', 'inactive'),
  ('CCCCCC/C=C1\CCC(CN(C)C)C1=O (stereo unspecified)', 'inactive'),
  ('N#Cc1cc2c(n(C3OC(CO)C(O)C(O)C3O)c1=S)CCC2 (stereo unspecified)', 'inactive'),
  ('CC1=C(C(=O)Nc2ccccc2)C(c2ccc(C3C(C(=O)Nc4ccccc4)=C(C)NC(C)=C3C(=O)Nc3ccccc3)cc2)C(C(=O)Nc2ccccc2)=C(C)N1', 'inactive'),
  ('C=C[C@@]1(O)CCCC[C@@H]1CC(Sc1ccccc1)Sc1ccccc1', 'inactive'),
  ('O=C1[C@H](O)[C@@H]2CCC[C@@]23CCCN13', 'inactive'),
  ('CN1CCN(CCCNN)CC1', 'inactive'),
  ('COc1cc(/C=C(\C#N)C(N)=C(C#N)C#N)cc(O)c1O', 'inactive'),
  ('Cc1c(O)c(C)c2c(C)cn(C(=O)C(C)(C)C)c2c1C', 'inactive'),
  ('COc1cc2cc(C(=O)N3CC(CCl)c4ccc([N+](C)(C)Cc5ccccc5[N+](=O)[O-])cc43)[nH]c2c(OC)c1OC (stereo unspecified)', 'inactive'),
  ('COC(=O)/C(=N\Nc1nnc(C)n1N)C(C#N)c1ccccc1 (stereo unspecified)', 'inactive'),
  ('O=C(Nc1sccc1S(=O)(=O)c1ccc(Cl)cc1)C(F)(F)F', 'inactive'),
  ('CC(C)(O)CCC(O)C(C)(O)C1CCC2(O)C3=CC(=O)C4(O)CC(O)C(O)CC4(C)C3CCC12C.CC(C)(O)CCC(O)C(C)(O)C1CCC2(O)C3=CC(=O)C4CC(O)C(O)CC4(C)C3CCC12C (stereo unspecified)', 'inactive'),
  ('O=c1cc(-c2ccccc2)nc(-n2[nH]c3c(c2=O)CCCC3)[nH]1', 'inactive'),
  ('O=[N+]([O-])c1ccc2c(/N=N/c3ccc4ccccc4c3O)c(O)cc(S(=O)(=O)O)c2c1', 'inactive'),
  ('CC(=O)OCC1OC(n2ncc(=O)[nH]c2=O)C(OC(C)=O)C1OC(C)=O (stereo unspecified)', 'inactive'),
  ('COc1c(OC(C)=O)c(OC(C)=O)cc2c1-c1ccc(SC)c(=O)cc1C(NC(C)=O)CC2 (stereo unspecified)', 'active'),
  ('S=c1ssc2c3ssc(=S)c3n(Cc3ccccc3)c12', 'inactive'),
  ('O=C(c1ccccc1)N1CCN(C(=S)N(C(=O)c2ccccc2)c2ccccc2)C1=S', 'inactive'),
  ('O=C(Nc1nccs1)NS(=O)(=O)n1cnc2ccccc21', 'inactive'),
  ('CC(=O)OC12c3ccccc3C(c3ccccc31)C1C(=O)N(N=C(C)C)C(=O)C12 (stereo unspecified)', 'inactive'),
  ('CC(C)(C)C1CCC2c3c([nH]c4ccccc34)C3C(=O)N(c4cccc(Cl)c4)C(=O)C3C2C1 (stereo unspecified)', 'inactive'),
  ('COc1cccc(-c2nc(O)c3ccccc3n2)c1OC', 'inactive'),
  ('CC1OC(OC2C(OC(=O)[C@]34CCC(C)(C)C[C@H]3C3=CC[C@@H]5[C@@]6(C)CC[C@H](OC7OC(C(=O)O)C(O)C(O)C7O)C(C)(C)[C@@H]6CC[C@@]5(C)[C@]3(C)C[C@H]4O)OCC(O)C2O)C(O)C(O)C1OC1OCC(OC2OCC(O)C(O)C2O)C(O)C1O (stereo partly specified)', 'inactive'),
  ('Cc1ccc2c(O)cc(-c3ccc4ccccc4c3)nc2n1', 'inactive'),
  ('O=c1c2ccccc2[nH]c(=S)n1-c1ccc(/N=N/c2cccc3c(O)cccc23)cc1', 'inactive'),
  ('COc1cc(C(=O)c2cocc2C(=O)c2ccc3c(c2)OCO3)cc(OC)c1OC', 'active'),
  ('CCOC(=O)N1c2ccccc2S(=O)(=O)c2ccccc21', 'inactive'),
  ('COc1ccc(CCc2cc(OC)c(OC)c(OC)c2)cc1', 'active'),
  ('N=C(N)NCCCC(NC(=O)OCCCCCn1ccc(N)nc1=O)C(=O)O (stereo unspecified)', 'inactive'),
  ('CCOC(=O)/C(C#N)=C(/NNc1ccccc1)c1ccncc1C(=O)O', 'inactive'),
  ('CC(=O)N1C(Nc2ccccc2)CCN1c1ccccc1 (stereo unspecified)', 'inactive'),
  ('Clc1ccc(-c2noc(CN3CCCCC3)n2)cc1', 'inactive'),
  ('CC1=CCC[C@]2(C)C1=CC(=O)O[C@H]2c1ccoc1', 'inactive'),
  ('CC1CCC(O)(C(C)(C(=O)O)c2ccccc2)CC1 (stereo unspecified)', 'inactive'),
  ('NCCCN(CCCN)CCN(CCN(CCCN)CCCN)CCN(CCCN)CCCN', 'inactive');
